# targetDesc: Protein LANA1 (Human herpesvirus 8 type P (isolate GK18)) (UniProt Q9QR71)
# Sequence (Q9QR71 whole entry, looked up): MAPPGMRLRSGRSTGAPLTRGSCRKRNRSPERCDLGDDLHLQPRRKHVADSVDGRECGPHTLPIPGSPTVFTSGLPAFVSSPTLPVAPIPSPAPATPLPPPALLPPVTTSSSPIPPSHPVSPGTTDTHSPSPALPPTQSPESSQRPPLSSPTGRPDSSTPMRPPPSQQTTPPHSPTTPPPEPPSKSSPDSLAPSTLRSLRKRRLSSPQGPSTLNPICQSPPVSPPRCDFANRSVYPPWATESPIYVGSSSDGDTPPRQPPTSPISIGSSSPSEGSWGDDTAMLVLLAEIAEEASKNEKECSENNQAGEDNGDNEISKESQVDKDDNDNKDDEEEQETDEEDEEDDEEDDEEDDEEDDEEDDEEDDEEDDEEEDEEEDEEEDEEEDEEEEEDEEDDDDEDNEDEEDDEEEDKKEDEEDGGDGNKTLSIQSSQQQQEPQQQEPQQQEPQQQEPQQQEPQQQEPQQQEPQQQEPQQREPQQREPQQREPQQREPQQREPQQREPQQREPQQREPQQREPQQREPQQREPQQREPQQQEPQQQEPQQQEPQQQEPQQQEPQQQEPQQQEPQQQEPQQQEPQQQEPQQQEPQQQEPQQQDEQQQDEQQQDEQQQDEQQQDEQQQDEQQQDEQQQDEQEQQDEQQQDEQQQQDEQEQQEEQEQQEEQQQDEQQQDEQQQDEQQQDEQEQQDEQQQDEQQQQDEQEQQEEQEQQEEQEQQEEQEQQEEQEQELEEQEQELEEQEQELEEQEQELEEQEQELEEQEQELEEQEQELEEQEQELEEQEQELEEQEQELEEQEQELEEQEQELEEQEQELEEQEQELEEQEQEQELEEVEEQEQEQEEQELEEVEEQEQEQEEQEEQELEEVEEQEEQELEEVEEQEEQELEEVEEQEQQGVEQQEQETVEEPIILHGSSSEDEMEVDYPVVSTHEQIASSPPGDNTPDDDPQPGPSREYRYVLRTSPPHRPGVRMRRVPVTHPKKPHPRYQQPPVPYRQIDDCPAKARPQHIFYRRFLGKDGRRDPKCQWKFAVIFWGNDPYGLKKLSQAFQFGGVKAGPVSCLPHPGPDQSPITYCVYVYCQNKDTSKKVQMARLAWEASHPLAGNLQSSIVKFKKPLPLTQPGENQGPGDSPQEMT
# assayName: blockers of LANA interaction with H2A/H2B – biochemical, FP readout, HTS, primary screen (AID 2629)
# recordedConditions: cell-free LANA-H2A/H2B peptide, fluorescence polarization, stronger effect = higher value, concentration not given here
Out of some 320,000 compounds screened, about 1,900 (0.59%) were called active. The sample as a whole holds a higher share of actives than the screen did.
inhibition overview
Kindly answer with a numeric value in %, unit omitted.

Query block: Read the entry COc1ccc(C(=O)NC(C)c2nccs2)cc1OC1CCN(C(C)C)CC1 (stereo not given) and write its reported inhibition.
Result block: 4.31

Query block: Read the entry COc1cc(C(=O)Nc2ncccc2C)ccc1OCC(=O)N1CCOCC1 and write its reported inhibition.
Result block: -0.868

Query block: Read the entry O=C(NCc1cccs1)C1CCN(S(=O)(=O)c2ccc3c(c2)OCCO3)CC1 and write its reported inhibition.
Result block: -3.5

Query block: Read the entry O=C(CCc1ccccc1)NNC(=O)COc1ccc(Cl)cc1 and write its reported inhibition.
Result block: 77.8

Query block: Read the entry Cc1noc(C)c1COc1ccccc1C(=O)N(C)CC(=O)Nc1cccc(F)c1 and write its reported inhibition.
Result block: 0.0499

Query block: Read the entry O=C(OCC(=O)N1CCOCC1)c1ccc2ccccc2c1 and write its reported inhibition.
Result block: -0.101

Query block: Read the entry COC(=O)[C@H](C(C)C)n1c(C)c(C(C)=O)c(C(C)=O)c1C and write its reported inhibition.
Result block: -3.34

----------
# targetDesc: Protein LANA1 (Human herpesvirus 8 type P (isolate GK18))
# assayName: blockers of LANA interaction with H2A/H2B – biochemical, FP readout, HTS, primary screen (AID 2629)
# recordedConditions: cell-free LANA-H2A/H2B peptide, fluorescence polarization, stronger effect = higher value, concentration not given here
Among all 320,000 compounds or so, about 1,900 (0.59%) were called active. Only a selection was taken, and actives are over-represented in it overall.
measuredParameter: inhibition

Solved entries:
>>> result("COc1ccc(NC(=O)CSc2nc(N)c(-c3ccccc3)c(=O)[nH]2)cc1")
"12.1% (active)"
>>> result("FC(F)(F)c1nnc2c3ccccc3c(Cl)nn12")
"8.62% (inactive)"
>>> result("Cc1ccc2c(c1)N(C(=O)CCC(=O)NCc1cccnc1)CCO2")
"-4.82% (inactive)"
>>> result("Cc1cc(Nc2ccccc2)nc(N)n1")
"85.1% (active)"
>>> result("CC(=O)Nc1ccc(Nc2cc(C)nc(Nc3ccc(NC(C)=O)cc3)n2)cc1")
"-0.44% (inactive)"

Query block: Read the entry CS(=O)(=O)N1CCN(CC(=O)NC2CCCC2)CC1 and write its reported inhibition.
Result block: 3.66% (inactive)

----------
# targetDesc: Protein LANA1 (Human herpesvirus 8 type P (isolate GK18)) (UniProt Q9QR71)
# assayName: blockers of LANA interaction with H2A/H2B – biochemical, FP readout, HTS, primary screen (AID 2629)
# recordedConditions: cell-free LANA-H2A/H2B peptide, fluorescence polarization, stronger effect = higher value, concentration not given here
The campaign covered roughly 320,000 compounds. About 1,900 (0.59%) were called active. The list comes from a sample in which actives are over-represented; it also holds close analogues and randomly drawn compounds.
measuredParameter: inhibition (%)
Kindly answer with a numeric value in %, unit omitted.

>>> readoutnumber("CC1Cc2cc(/C(O)=C3\\C(=O)C(=O)N(Cc4cccnc4)C3c3ccccc3F)ccc2O1 (configuration not stated)")
12.2
>>> readoutnumber("O=C(CN1CCN(c2ccccc2O)CC1)NC(=O)NCc1ccccc1")
2.65
>>> readoutnumber("CN(C)S(=O)(=O)c1ccc(NC(=O)COC(=O)c2n[nH]c3ccccc23)cc1")
15.3
>>> readoutnumber("O=C(/C=C/Nc1ccc(S(=O)(=O)Nc2cnc3ccccc3n2)cc1)c1cccnc1")
5.47

Query block: Read the entry CCN(CC(=O)NCc1cccs1)C(=O)/C=C/c1ccc(C)cc1 and write its reported inhibition.
Result block: -0.65

Query block: Read the entry CCNC(=S)N(CCN(CC)CC)Cc1cc2cc3c(cc2[nH]c1=O)OCCO3 and write its reported inhibition.
Result block: -5.92

Query block: Read the entry COc1cc(CNCc2ccc(OC)c3ccccc23)cc(OC)c1OC and write its reported inhibition.
Result block: -2.97

Query block: Read the entry Cc1ccc(CNC(=O)c2c(-c3ccccc3)noc2C)cc1 and write its reported inhibition.
Result block: -3.29

Query block: Read the entry CCn1c(SCC(=O)NC2CCCC2)nnc1-c1ccoc1C and write its reported inhibition.
Result block: -2.52

Query block: Read the entry Nc1ccn(CC(=O)N2CCN(c3ccccn3)CC2)c(=O)n1 and write its reported inhibition.
Result block: 0.94

Query block: Read the entry Cc1onc(-c2ccccc2)c1C(=O)Nc1ccccc1C#N and write its reported inhibition.
Result block: 1.04

Query block: Read the entry Cc1cc(C)cc(Oc2nc3c(C)cccn3c(=O)c2/C=C(\C#N)C(=O)NC2CCS(=O)(=O)C2)c1 (configuration not stated) and write its reported inhibition.
Result block: 18.8

Query block: Read the entry O=C(CCn1nnc2ccccc2c1=O)N[C@@H](Cc1c[nH]c2ccccc12)C(=O)O and write its reported inhibition.
Result block: -3.09

Query block: Read the entry O=C(CCc1nc2ccccc2c(=O)[nH]1)OCC(=O)c1cccc(Cl)c1 and write its reported inhibition.
Result block: -2.71

Query block: Read the entry CN(C)S(=O)(=O)c1ccc(NC(=O)COC(=O)Cn2[nH]c(=O)c3ccccc3c2=O)cc1 and write its reported inhibition.
Result block: 3.02

Query block: Read the entry CC(C)Cn1c(N)c(C(=O)COC(=O)CN2C(=O)C3CC=CCC3C2=O)c(=O)n(C)c1=O (configuration not stated) and write its reported inhibition.
Result block: -0.106

Query block: Read the entry COc1ccc(C2C(C(C)=O)=C(O)C(=O)N2Cc2cccnc2)cc1 (configuration not stated) and write its reported inhibition.
Result block: 0.519

Query block: Read the entry C=CCC[C@@H](Cc1ccc(F)cc1)C(=O)OC[C@H](Cc1c[nH]c2ccccc12)NC(=O)[C@@H](CC=C)CC(=O)N(CCO)Cc1ccccc1 and write its reported inhibition.
Result block: 3.67

Query block: Read the entry COc1ccc([N+](=O)[O-])cc1N(CC(O)CN(CC(C)C)CC(C)C)S(=O)(=O)c1ccc(C)cc1 (configuration not stated) and write its reported inhibition.
Result block: 1.46

Query block: Read the entry CCNC(=O)c1cccc(NC(=O)C2CC(=O)N(CCc3ccccc3)C2)c1 (configuration not stated) and write its reported inhibition.
Result block: 75.8
